From: ChEMBL document CHEMBL1140717

Tested on: MIA PaCa-2
Assay: Cell cycle arrest in human MiaPaCa2 cells assessed as accumulation at G1 phase at 15 uM after 36 hrs
Assay type: functional
Outcome Measure: Activity (%)

> print(dat)
                                smiles.text  assay.target  test.result
1  CN1CCN(C(=O)c2cccc3c(NCCc4c[nH]c5ccccc45)c4ccccc4nc23)CC1    MIA PaCa-2           32
2  CCN(CC)C(=O)c1ccc2c(NCCc3c[nH]c4ccccc34)c3ccccc3nc2c1    MIA PaCa-2           32
3  CN1CCN(C(=O)c2ccc3c(NCCc4c[nH]c5ccccc45)c4ccccc4nc3c2)CC1    MIA PaCa-2           29
4  CN1CCN(C(=O)c2ccc3c(NC4CCN(Cc5ccccc5)CC4)c4ccccc4nc3c2)CC1    MIA PaCa-2           28
